Provenance of the data: ChEMBL document CHEMBL3108749

The entries below come with measured inhibition values attached.
target: 17-beta-hydroxysteroid dehydrogenase type 1 (Homo sapiens); experiment: Inhibition of 17-beta HSD1 in human T47D cells assessed as transformation of [14C]E1 to [14C]E2 at 0.1 uM after 24 hrs by thin layer chromatography; format: cell-based
Express your answer in %, writing the number without its unit.

| record.smiles | numeric.readout |
| --- | --- |
| C[C@]12CC[C@@H]3c4ccc(CN)cc4CC[C@H]3[C@@H]1C[C@H](Cc1cccc(C(N)=O)c1)[C@@H]2O | 44 |
| C[C@]12CC[C@@H]3c4ccc(C(N)=O)cc4CC[C@H]3[C@@H]1C[C@H](Cc1cccc(C(N)=O)c1)[C@@H]2O | 2 |
| C[C@]12CC[C@@H]3c4ccc(CBr)cc4CC[C@H]3[C@@H]1C[C@H](Cc1cccc(C(N)=O)c1)[C@@H]2O | 30 |

**Q:** Suppose we examine the molecule C[C@]12CC[C@@H]3c4ccc(C(=O)O)cc4CC[C@H]3[C@@H]1C[C@H](Cc1cccc(C(N)=O)c1)[C@@H]2O ; what inhibition value has been reported?
**A:** 3

**Q:** Quick one: inhibition for C[C@]12CC[C@@H]3c4ccc(O)cc4CC[C@H]3[C@@H]1C[C@H](Cc1cccc(C(N)=O)c1)[C@@H]2O ?
**A:** 72

**Q:** Any idea what inhibition was measured for CN(C)C(=O)c1ccc2c(c1)CC[C@@H]1[C@@H]2CC[C@]2(C)[C@@H](O)[C@@H](Cc3cccc(C(N)=O)c3)C[C@@H]12 ?
**A:** 1

**Q:** Give its inhibition value. Item: C[C@]12CC[C@@H]3c4ccc(OCCBr)cc4CC[C@H]3[C@@H]1C[C@H](Cc1cccc(C(N)=O)c1)[C@@H]2O
**A:** 37

**Q:** Return reported inhibition; argument: CCc1ccc2c(c1)CC[C@@H]1[C@@H]2CC[C@]2(C)[C@@H](O)[C@@H](Cc3cccc(C(N)=O)c3)C[C@@H]12
**A:** 6
